Cited source for all entries: ChEMBL document CHEMBL4689842

System: U2OS
Assay info: Incucyte cell viability with U2OS; further: filed as whole numbers so only -1 and 0 and 1 occur
Format: toxicity, cell-based
Condition notes: human, 18 h, 10 µM, compound concentration 10 uM, replicate number 1, timepoint 18 hours
Where a SMILES comes first, the peptide text is derived from it. [ ]: non-standard residue; d: D form. Arg(Me) = CNC(=N)NCCC[C@H](N)C(=O)O; d4Pal = N[C@H](Cc1ccncc1)C(=O)O; azaGly = NNC(=O)O
Property name: Growth Rate
Please respond with just the number, no unit label.

1) Cc1nc(Nc2n[nH]c3c2CN(C(=O)N[C@H](CN(C)C)c2ccccc2)C3(C)C)c2sccc2n1 ... 0
2) CCC(=O)Nc1cccc(Oc2nc(Nc3ccc(N4CCN(C)CC4)cc3OC)ncc2Cl)c1 ... 0
3) Clc1cccc(-c2nnnn2Cc2cccnc2)c1Cl ... 0
4) COc1ncc(-c2ccc3nccc(-c4ccnnc4)c3c2)cc1NS(=O)(=O)c1ccc(F)cc1F ... 0
5) CN1CCN(CCOc2cc(OC3CCOCC3)c3c(Nc4c(Cl)ccc5c4OCO5)ncnc3c2)CC1 ... 0

**Q:** Request the reported Growth Rate associated with Cn1c(-c2csc(C3CCN(CC4=NC5N=CC=CC5N4)CC3)n2)nc2ccccc21 (stereo not given)
**A:** 0

**Q:** Which Growth Rate is listed for `CS(=O)(=O)c1cccc(NC(=O)N(Cc2ccc(C(=O)Nc3nn[nH]n3)cc2)c2ccc(C3CCCCC3)cc2)c1` ?
**A:** 1

**Q:** Entry CNC(=N)NCCC[C@H](NC(=O)[C@H](CC(C)C)NC(=O)NNC(=O)[C@H](Cc1ccccc1)NC(=O)[C@H](CO)NC(=O)[C@H](CC(N)=O)NC(=O)[C@@H](Cc1ccncc1)NC(=O)[C@H](N)Cc1ccc(O)cc1)C(=O)N[C@@H](Cc1ccccc1)C(N)=O [KISS1-305] (H-[dY][d4Pal]NSF[azaGly]L[Arg(Me)]F-NH2) : reported Growth Rate = ?
**A:** 0

====

This section presents compounds with their documented Population Hoechst High Intensity Objects (%) values.
System: U2OS
Assay info: Multiplex assay against U2OS
Type: toxicity, cell-based
Condition notes: human, 48 h, 1 µM, compound concentration 1 uM, replicate 1
Use % as the unit, but write only the number.

1. COc1cc(-n2cnc3cc(-c4ccc(Cl)cc4)sc3c2=O)ccc1OCCN1CCCC1 ... 3
2. Cn1cc(-c2[nH]c3cc(NC(=O)[C@H](N)C4CCCCC4)cc4c3c2C=NNC4=O)cn1 ... 3
3. Cc1nc(-c2ccc(-c3ccc(C(=O)N4CCc5cc6c(cc54)C4(CCN(C)CC4)CO6)cc3)c(C)c2)no1 ... 6

Pending compound:
**Q:** Field request: Population Hoechst High Intensity Objects (%) | item: CN1CCCC(n2nc(Cc3ccc(Cl)cc3)c3ccccc3c2=O)CC1.Cl (centres undefined) [AZELASTINE HYDROCHLORIDE]
**A:** 6

====

Test system: Fibroblast
Assay info: Multiplex assay against human fibroblast
Format: toxicity, cell-based
Condition notes: 24 h, 1 µM, compound concentration 1 uM, replicate 2
# Total Cell Count values compiled below

1. Cc1nc(Nc2n[nH]c3c2CN(C(=O)N[C@H](CN(C)C)c2ccccc2)C3(C)C)c2sccc2n1 ... 82
2. CN(C)C(=O)N[C@H]1CC[C@H](CCN2CCN(c3cccc(Cl)c3Cl)CC2)CC1.Cl [CARIPRAZINE HYDROCHLORIDE] ... 67
3. Cc1c(-c2ccc(O)cc2)n(Cc2ccc(OCCN3CCCCCC3)cc2)c2ccc(O)cc12 ... 60
4. CC(C)NCC(O)COc1ccc(CCOCC2CC2)cc1.Cl (stereo not given) [BETAXOLOL HYDROCHLORIDE] ... 59
5. CCN(CC)CCCCNc1ncc2cc(-c3cc(OC)cc(OC)c3)c(NC(=O)NC(C)(C)C)nc2n1 ... 339

**Q:** # Total Cell Count lookup, item `Cc1[nH]c(/C=C2\C(=O)Nc3ccc(S(=O)(=O)N(C)c4cccc(Cl)c4)cc32)c(C)c1C(=O)N1CCN(C)CC1`
**A:** 65

**Q:** If you can, please state the reported Total Cell Count value of `NC(=O)Nc1cc(-c2cccc(F)c2)sc1C(=O)N[C@H]1CCCNC1` .
**A:** 68

**Q:** Give its Total Cell Count value. Item: Cl.N#Cc1ccc2[nH]cc(CCCCN3CCN(c4ccc5oc(C(N)=O)cc5c4)CC3)c2c1 [VILAZODONE HYDROCHLORIDE]
**A:** 54

====

Test system: Fibroblast
Assay info: Multiplex assay against human fibroblast
Assay type: toxicity, cell-based
Condition notes: 48 h, 10 µM, compound concentration 10 uM, replicate 2
Class yes: Population Apoptotic (%) at least 70%. Class no: Population Apoptotic (%) below 70%.

1. COc1cc2nccc(Oc3ccc(NC(=O)Nc4cc(C)on4)c(Cl)c3)c2cc1OC.O ... no
2. CNc1nc(NCc2ccc(NS(C)(=O)=O)cc2Cl)cc(-c2ccccn2)n1 ... yes
3. NC(=O)Nc1cc(-c2cccc(F)c2)sc1C(=O)N[C@H]1CCCNC1 [AZD-7762] ... yes
4. c1cn2cc(-c3ccc4cn[nH]c4c3)nc(Nc3ccc(N4CCOCC4)cc3)c2n1 [ENTOSPLETINIB] ... yes
5. Cc1c(-c2ccc(O)cc2)n(Cc2ccc(OCCN3CCCCCC3)cc2)c2ccc(O)cc12 [BAZEDOXIFENE] ... yes
6. Cc1csc2c(N[C@@H](C)CN3CCN(S(=O)(=O)c4ccc(Cl)c(Cl)c4)CC3)ncnc12 ... no

**Q:** Does the compound CN1CCC[C@@H]1CCO[C@](C)(c1ccccc1)c1ccc(Cl)cc1.O=C(O)/C=C/C(=O)O [CLEMASTINE FUMARATE] have recorded Population Apoptotic (%) that is 70% or more?
**A:** yes

**Q:** Please indicate if the recorded Population Apoptotic (%) for `Cn1cc(-c2[nH]c3cc(NC(=O)[C@H](N)C4CCCCC4)cc4c3c2C=NNC4=O)cn1` meets or exceeds 70%.
**A:** no

**Q:** Form field: Population Apoptotic (%) at least 70%? Entry: `C=CC(=O)Nc1cccc(C(=O)Nc2ccc(Nc3cc(-c4[nH]c(SC)nc4C)ccn3)cc2)c1`
**A:** yes

**Q:** State whether the measured Population Apoptotic (%) reaches 70%, counting equality as reaching it, for `Cc1cc(C)cc(-c2cnc3cc(Cl)c(-c4cccc(O)c4)cc3c2OCCCN)c1`
**A:** yes

**Q:** Say whether `CN(C)C(=O)/C(C#N)=C/c1ccc(-c2nc3cnc4[nH]ccc4c3n2C2CCCCC2)o1` shows Population Apoptotic (%) of 70% or more.
**A:** no

**Q:** Reported Population Apoptotic (%) at or above 70%? CN1CCN(CCOc2cc(OC3CCOCC3)c3c(Nc4c(Cl)ccc5c4OCO5)ncnc3c2)CC1 [SARACATINIB]
**A:** no

**Q:** Hello, I need to know if CNCc1ccccc1-c1csc([C@H](C)Nc2nc(C)nc3cc(OC)c(OC)cc23)c1 [BAY-294] has measured Population Apoptotic (%) not below 70%. Thanks!
**A:** yes

**Q:** Given the entry C[C@@H](NCCCc1cccc(C(F)(F)F)c1)c1cccc2ccccc12.Cl [CINACALCET HYDROCHLORIDE] , answer whether its Population Apoptotic (%) meets or surpasses 70%.
**A:** yes

====

Each entry below lists one item and its recorded Population Healthy Nuclei (%) value.
Tested on: U2OS
Assay info: Multiplex assay against U2OS
Assay type: toxicity, cell-based
Condition notes: human, 12 h, 10 µM, compound concentration 10 uM, replicate 1
Record the value in %, omitting the unit from your answer.

1) C=CC(=O)Nc1cc2c(Nc3ccc(F)c(Cl)c3)ncnc2cc1OCCCN1CCOCC1.Cl.Cl [CANERTINIB DIHYDROCHLORIDE] ... 87
2) CC[C@H](C)C(=O)O[C@H]1C[C@@H](C)C=C2C=C[C@H](C)[C@H](CC[C@@H]3C[C@@H](O)CC(=O)O3)[C@H]21 ... 68

**Q:** Requested field: Population Healthy Nuclei (%). Item: `Cc1nc(-c2ccc(-c3ccc(C(=O)N4CCc5cc6c(cc54)C4(CCN(C)CC4)CO6)cc3)c(C)c2)no1`
**A:** 61

**Q:** Which Population Healthy Nuclei (%) is listed for `Cc1[nH]c(/C=C2\C(=O)Nc3ccc(S(=O)(=O)N(C)c4cccc(Cl)c4)cc32)c(C)c1C(=O)N1CCN(C)CC1` ?
**A:** 76

====

System: HEK-293T
Assay info: Multiplex assay against HEK293T
Assay type: toxicity, cell-based
Condition notes: human, 12 h, 1 µM, compound concentration 1 uM, replicate 2
Listing of entries alongside the reported Population Apoptotic (%).
Give a bare numeral; the unit % is implied.

Reference set (2 entries):
1. Cc1csc2c(N[C@@H](C)CN3CCN(S(=O)(=O)c4ccc(Cl)c(Cl)c4)CC3)ncnc12 ... 27
2. OC1(c2ccc(Cl)cc2)CCN(Cc2c[nH]c3ccccc23)CC1 ... 18

**Q:** # Population Apoptotic (%) lookup, item CN(C)C(=O)N[C@H]1CC[C@H](CCN2CCN(c3cccc(Cl)c3Cl)CC2)CC1.Cl [CARIPRAZINE HYDROCHLORIDE]
**A:** 20

**Q:** Which Population Apoptotic (%) value is on record for `Cc1c(-c2ccc(O)cc2)n(Cc2ccc(OCCN3CCCCCC3)cc2)c2ccc(O)cc12` ?
**A:** 12

**Q:** What value of Population Apoptotic (%) has been reported for the following compound? `NC(=O)Nc1cc(-c2cccc(F)c2)sc1C(=O)N[C@H]1CCCNC1`
**A:** 18

**Q:** May I ask what Population Apoptotic (%) has been recorded for `CC(C)(O)CNc1ncc(-c2ccnc(Nc3ccnc(Cl)c3)n2)c(CC2CC2)n1` ?
**A:** 17

**Q:** I'd like to know its Population Apoptotic (%). The compound in question is `c1cn2cc(-c3ccc4cn[nH]c4c3)nc(Nc3ccc(N4CCOCC4)cc3)c2n1`
**A:** 22

**Q:** Which Population Apoptotic (%) reading was recorded for the compound CC(C)NCC(O)COc1ccc(CCOCC2CC2)cc1.Cl (centres undefined) [BETAXOLOL HYDROCHLORIDE] ?
**A:** 12

**Q:** I am curious: what Population Apoptotic (%) value has been reported for `CN1CCN(CCOc2cc(OC3CCOCC3)c3c(Nc4c(Cl)ccc5c4OCO5)ncnc3c2)CC1` ?
**A:** 22

**Q:** I have this compound here, CN1CCCC(n2nc(Cc3ccc(Cl)cc3)c3ccccc3c2=O)CC1.Cl (centres undefined) [AZELASTINE HYDROCHLORIDE] , and I need its recorded Population Apoptotic (%).
**A:** 40

**Q:** Look at this compound and give its reported Population Apoptotic (%). `C=CC(=O)Nc1cccc(C(=O)Nc2ccc(Nc3cc(-c4[nH]c(SC)nc4C)ccn3)cc2)c1`
**A:** 5

**Q:** So what does the record say about Population Apoptotic (%) for `Cc1cc(C)cc(-c2cnc3cc(Cl)c(-c4cccc(O)c4)cc3c2OCCCN)c1` ?
**A:** 31

**Q:** # get_value(readout='Population Apoptotic (%)', item= CN1CCC[C@@H]1CCO[C@](C)(c1ccccc1)c1ccc(Cl)cc1.O=C(O)/C=C/C(=O)O [CLEMASTINE FUMARATE] )
**A:** 25

**Q:** Request the reported Population Apoptotic (%) associated with `Cc1[nH]c(/C=C2\C(=O)Nc3ccc(S(=O)(=O)N(C)c4cccc(Cl)c4)cc32)c(C)c1C(=O)N1CCN(C)CC1`
**A:** 23

**Q:** Item `CN1CCN(c2ccc(OC(F)(F)F)c(Nc3ncc4c(n3)-c3c(c(C(N)=O)nn3CCO)CC4)c2)CC1` has what recorded Population Apoptotic (%)?
**A:** 21

**Q:** Reported Population Apoptotic (%), compound `C[C@@]1(C(=O)Nc2ccc(F)nc2)CCCN1c1nc(Nc2cc(C3CC3)n[nH]2)c2cccn2n1` : ____
**A:** 20

**Q:** What does the data say about its Population Apoptotic (%)? Entry: `CCN(CC)CCCCNc1ncc2cc(-c3cc(OC)cc(OC)c3)c(NC(=O)NC(C)(C)C)nc2n1`
**A:** 6

**Q:** Value lookup for Population Apoptotic (%); key = `COc1cc(-n2cnc3cc(-c4ccc(Cl)cc4)sc3c2=O)ccc1OCCN1CCCC1`
**A:** 20

**Q:** Population Apoptotic (%) lookup needed for `CNc1nc(NCc2ccc(NS(C)(=O)=O)cc2Cl)cc(-c2ccccn2)n1` , thanks.
**A:** 14

**Q:** Give its Population Apoptotic (%) value. Item: `Cc1nc(Nc2n[nH]c3c2CN(C(=O)N[C@H](CN(C)C)c2ccccc2)C3(C)C)c2sccc2n1`
**A:** 8

**Q:** Which Population Apoptotic (%) is reported for this compound? `CN(C)CC#Cc1ccc(OCCCc2sc(N3CCc4cccc(C(=O)Nc5nc6ccccc6s5)c4C3)nc2C(=O)O)c(F)c1`
**A:** 15

**Q:** Which value of Population Apoptotic (%) has been reported for Cl.N#Cc1ccc2[nH]cc(CCCCN3CCN(c4ccc5oc(C(N)=O)cc5c4)CC3)c2c1 [VILAZODONE HYDROCHLORIDE] in the records?
**A:** 20

**Q:** # lookup: Population Apoptotic (%) of `Cc1nc(-c2ccc(-c3ccc(C(=O)N4CCc5cc6c(cc54)C4(CCN(C)CC4)CO6)cc3)c(C)c2)no1`
**A:** 24

**Q:** Need Population Apoptotic (%) of C=CC(=O)Nc1cc2c(Nc3ccc(F)c(Cl)c3)ncnc2cc1OCCCN1CCOCC1.Cl.Cl [CANERTINIB DIHYDROCHLORIDE] , thanks.
**A:** 47

**Q:** Quick one: Population Apoptotic (%) for `COc1ncc(-c2ccc3nccc(-c4ccnnc4)c3c2)cc1NS(=O)(=O)c1ccc(F)cc1F` ?
**A:** 27
